The following molecules are listed with their measured inhibition at 10 µM values.
- measurement_target: human Edg-1 (S1P1) (Homo sapiens)
- Construct: expressed in transfected cells; host or cells: HEK-293
- Sequence (P21453 whole entry): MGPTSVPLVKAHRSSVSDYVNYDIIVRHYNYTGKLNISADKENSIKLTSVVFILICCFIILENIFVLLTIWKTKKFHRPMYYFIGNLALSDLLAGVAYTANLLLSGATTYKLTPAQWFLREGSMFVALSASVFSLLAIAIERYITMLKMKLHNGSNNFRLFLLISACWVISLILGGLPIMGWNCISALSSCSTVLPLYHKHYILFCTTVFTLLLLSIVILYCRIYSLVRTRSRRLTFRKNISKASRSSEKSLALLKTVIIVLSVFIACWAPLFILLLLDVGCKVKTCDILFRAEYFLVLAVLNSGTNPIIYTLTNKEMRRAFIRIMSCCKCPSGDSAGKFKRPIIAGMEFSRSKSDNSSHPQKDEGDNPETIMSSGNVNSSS
- protocol_summary: S1P1 binding inhibition test (membrane, [33P]-S1P)
- conditions: compound 10 μM; [33P]-S1P 0.1 nM; human Edg-1 (S1P1) HEK-293 membrane fraction; read-out: Binding test (membrane) % inhibition (10 μM)
Form entry: enter the amount, then its unit.

# molecule, value_reported
measured = [
    ("CCn1c(C(C)NS(=O)(=O)c2ccc(Br)c(F)c2)cnc1Oc1ccc(C)cc1 (stereo not drawn)", "102%"),
    ("CCn1c(C(C)NS(=O)(=O)c2cc(C(F)(F)F)ccc2Cl)cnc1Oc1ccc(C)cc1 (stereo not drawn)", "70.9%"),
    ("CCn1c(C(C)NS(=O)(=O)c2c(C)cccc2Cl)cnc1Oc1ccc(C)cc1 (stereo not drawn)", "64.5%"),
]

Documented inhibition at 10 µM of CCn1c(C(C)NS(=O)(=O)c2cccc(OC)c2)cnc1Oc1ccc(C)cc1 (stereo not drawn) : 89.9%

Documented inhibition at 10 µM of CCn1c(C(C)NS(=O)(=O)c2ccc(Cl)c(Cl)c2)cnc1Oc1ccc(Cl)cc1 (stereo not drawn) : 97.2%

Documented inhibition at 10 µM of CCn1c(C(C)NS(=O)(=O)c2ccc(Cl)c(Cl)c2)cnc1Oc1cccc(NS(C)(=O)=O)c1 (stereo not drawn) : 98.1%

Documented inhibition at 10 µM of CCn1c(C(C)NS(=O)(=O)c2ccc(C)cc2)cnc1Oc1ccc(C)cc1 (stereo not drawn) : 98.1%

Documented inhibition at 10 µM of CCn1c(C(C)NS(=O)(=O)c2ccc(Cl)c(Cl)c2)cnc1Oc1cccc(N2CCOCC2)c1 (stereo not drawn) : 101%

Documented inhibition at 10 µM of CCn1c(C(C)NS(=O)(=O)c2ccc(C(F)(F)F)cc2Br)cnc1Oc1ccc(C)cc1 (stereo not drawn) : 65.6%

Documented inhibition at 10 µM of CCn1c(C(C)NS(=O)(=O)c2ccc(I)cc2)cnc1Oc1ccc(C)cc1 (stereo not drawn) : 93.3%

Documented inhibition at 10 µM of CCn1c(C(C)NS(=O)(=O)c2ccc3ccc(Cl)cc3c2)cnc1Oc1cccc(N2CCN(C)CC2)c1 (stereo not drawn) : 97.4%

Documented inhibition at 10 µM of C=CCCCOc1ncc(C(C)NS(=O)(=O)c2ccc(Cl)c(Cl)c2)n1CC (stereo not drawn) : 93.1%
